Entry source: ChEMBL document CHEMBL4477264

Record form. Attribute: fold change (FC). Fill in for each entry.
Biological target: Quinolone resistance protein NorA (Staphylococcus aureus)
Test: Inhibition of NorA efflux pump overexpressed in Staphylococcus aureus 1199B assessed as fold reduction in ciprofloxacin MIC at 12.5 ug/ml measured after 24 hrs by broth checkerboard method
Could you respond with only the numeric value?

q: Consider the molecule O=C(O)/C=C/C=C/c1ccc2c(c1)OCO2 [PIPERIC ACID] and give its measured fold change (FC).
a: 0

q: Proceed to CCC(/C=C/C(=O)N1CCC(CC(=O)NC(C)(C)C(=O)OC)(NC(C)=O)CC1)=C\c1ccc2c(c1)OCO2
a: 2

q: Proceed to COC(=O)CC1(NC(=O)/C=C/C=C/c2ccc3c(c2)OCO3)CCCCC1
a: 0

q: Proceed to CCC(/C=C/C(=O)N[C@@H](Cc1ccccc1)C(=O)OC)=C\c1ccc2c(c1)OCO2
a: 2

q: Proceed to CCC(/C=C/C(=O)NC1(CC(=O)OC)CCC(C(C)(C)C)CC1)=C\c1ccc2c(c1)OCO2 (stereo unspecified)
a: 0

q: Proceed to CCCCC(=O)NC1(CC(=O)NNc2ccccc2)CCN(C(=O)/C=C/C(=C/c2ccc3c(c2)OCO3)CC)CC1
a: 4

###

Molecular target: Quinolone resistance protein NorA (Staphylococcus aureus)
Assay: Inhibition of NorA efflux pump in Staphylococcus aureus 1199 assessed as concentration required for four-fold reduction in ethidium bromide MIC measured at every 3 mins interval for 30 mins by fluorescence analysis
quantity measured: MEC (µg/mL)
Output spec: scalar in µg/mL, unitless text.

q: Consider the compound COC(=O)[C@@H](NC(=O)/C=C/C=C/c1ccc2c(c1)OCO2)C(C)(C)C and give its measured MEC.
a: 50

q: Proceed to CCC(/C=C/C(=O)N1CCCCC1)=C\c1ccc2c(c1)OCO2
a: 25

q: Proceed to CCCCC(=O)NC1(CC(=O)NNc2ccccc2)CCN(C(=O)/C=C/C(=C/c2ccc3c(c2)OCO3)CC)CC1
a: 12.5

###

Target: Quinolone resistance protein NorA (Staphylococcus aureus)
Assay: Inhibition of NorA efflux pump overexpressed in Staphylococcus aureus 1199B assessed as fold reduction in ciprofloxacin MIC at 12.5 ug/ml measured after 24 hrs by broth checkerboard method
Record form. Attribute: fold change (FC). Fill in for each entry.
Could you respond with only the numeric value?

q: Consider the compound CCC(/C=C/C(=O)N[C@H](C(=O)OC)C(C)(C)C)=C\c1ccc2c(c1)OCO2 and give its measured fold change (FC).
a: 4

q: Proceed to CCC(/C=C/C(=O)N[C@H](C(=O)OC)C(C)C)=C\c1ccc2c(c1)OCO2
a: 0

q: Proceed to COC(=O)[C@@H](NC(=O)/C=C/C=C/c1ccc2c(c1)OCO2)C(C)(C)C
a: 4

###

Molecular target: Quinolone resistance protein NorA (Staphylococcus aureus) (UniProt P0A0J7)
Assay: Inhibition of NorA efflux pump overexpressed in Staphylococcus aureus 1199B assessed as fold reduction in ethidium bromide MIC at 12.5 ug/ml measured at every 3 mins interval for 30 mins by fluorescence analysis
quantity measured: fold change (FC)
Could you respond with only the numeric value?

q: Consider the molecule CCC(/C=C/C(=O)N[C@@H](Cc1ccccc1)C(=O)OC)=C\c1ccc2c(c1)OCO2 and give its measured fold change (FC).
a: 4

q: Proceed to CCC(/C=C/C(=O)N[C@H](C(=O)OC)C(C)(C)C)=C\c1ccc2c(c1)OCO2
a: 2

q: Proceed to CCC(/C=C/C(=O)N1CCC[C@@H]1C(=O)OC)=C\c1ccc2c(c1)OCO2
a: 4

q: Proceed to O=C(/C=C/C=C/c1ccc2c(c1)OCO2)N1CCCCC1
a: 2
